System: T47D
Assay: NCI tumour cell line growth inhibition, 48 h
Activity calls are given as the source filed them. No stated cut-off is given here; in the data, active = GI50 up to about 1.1 µM and inactive = higher. *1 amine or outer side, *2 acyl side, *3 side chain or, on linkers, in order; H or OH if unused. Where a SMILES comes first, the peptide text is derived from it. Bridges are numbered along the chain shown (N, C = ends). Roman numbers before positions name the chains, in order. [ ]: non-standard residue; d: D form. Actinocin(9to1) = Cc1c2oc3c(C)ccc(C(=O)[*:1])c3nc-2c(C(=O)[*:2])c(N)c1=O; NMeV = CN[CH](C(=O)O)C(C)C; Sar = CNCC(=O)O
Reply using exactly one outcome from 1 (active), 0 (inactive)

Molecule | Class Assignment
COc1ccc2nc3c([N+](=O)[O-])ccc4c3c(c2c1)N=CN4CCN(C)C | 0
C[C@@](Br)(C(=O)O)[C@H](Br)C(=O)O | 0
CC[C@]12C=CCN3CC[C@@]4(c5cc(Br)c(OC)c([N+](=O)[O-])c5N(C)[C@H]4[C@@](O)(C(=O)OC)[C@@H]1OC(C)=O)[C@@H]32 | 0
O=C1CSC(c2c[nH]c3ccccc23)N1c1ccc(Cl)cc1Cl (stereo not given) | 0

Request: Could you check what this test reported for "CCOCCOCCOCc1nc(C#N)c(N)o1" ?
Response: 0

Request: Could you check what this test reported for Cc1c2oc3c(C)ccc(C(=O)NC4C(=O)NC(C(C)C)C(=O)N5CCCC5C(=O)N(C)CC(=O)N(C)C(C(C)C)C(=O)OC4C)c3nc-2c(C(=O)NC2C(=O)NC(C(C)C)C(=O)N3CCCC3C(=O)N(C)CC(=O)N(C)C(C(C)C)C(=O)OC2C)c(N)c1=O (stereo not given) (I: TVP[Sar][NMeV] / II: TVP[Sar][NMeV]; ester I:1-I:C, II:1-II:C; linker I:N-II:N via Actinocin(9to1); configuration not given here) ?
Response: 1

Request: Could you check what this test reported for "COc1ccc2nc3cccc([N+](=O)[O-])c3c(NCCC(=O)O)c2c1" ?
Response: 0

Request: Could you check what this test reported for Cc1ccc(NC(=O)C(Cc2c[nH]c3ccccc23)NC(=O)Oc2ccccc2)cc1C (stereo not given) ?
Response: 0

Request: Could you check what this test reported for COc1ccc(N2C(=O)CC(c3c[nH]c4ncccc34)C2=O)cc1 (stereo not given) ?
Response: 0

Request: Could you check what this test reported for COC(=O)c1ccc(CN2CCc3c([nH]c4ccccc34)C2CO)o1 (stereo not given) ?
Response: 0

----------
System: T47D
Assay: NCI tumour cell line growth inhibition, 48 h
The source made the active and inactive calls. Rule as the data show it: active = GI50 up to about 1.1 µM and inactive = higher.
Reply using exactly one outcome from active, inactive

Sample answers from the record:
Molecule | Class Assignment
CCOC(=O)CCC(NC(=O)OCc1ccccc1)C(=O)NC(CCC(=O)OCC)C(=O)NC(CCC(=O)OCC)C(=O)NC(CCC(=O)OCC)C(=O)NC(CCC(=O)OCC)C(=O)OCC (centres undefined) | inactive
Cc1ccc(Nc2[nH]c(=O)[nH]c(=O)c2C)cc1Cl | inactive
COC(=O)/C=C\C(C#N)(C#N)/N=C/c1cccs1 | inactive

Request: Could you check what this test reported for "Cc1nc(O)nc(N/N=C/c2c3ccccc3c(Cl)c3ccccc23)c1C(=O)Nc1ccc(Cl)cc1" ?
Response: inactive

Request: Could you check what this test reported for COc1cc2c3c(c1O)-c1c(ccc(OC)c1OC)CC3N(C)CC2 (centres undefined) ?
Response: inactive

Request: Could you check what this test reported for COC(Cc1ccccc1)NC(C)=O (centres undefined) ?
Response: inactive

Request: Could you check what this test reported for CC1=C2C(=O)O[C@@H](c3ccoc3)[C@]2(C)CCC1=O [FRAXINELLONONE] ?
Response: inactive

Request: Could you check what this test reported for "CCN(CCCl)c1cc(CN(C)C)cc(NC(=O)c2ccc(C(=O)Nc3cccc(N(CCCl)NN)c3)cc2)c1" ?
Response: active

Request: Could you check what this test reported for "Cc1ccc(Nc2c(C#N)[n+]([O-])c3cc(Cl)ccc3[n+]2[O-])cc1" ?
Response: inactive

----------
Test system: U-251
Test: NCI tumour cell line growth inhibition, 48 h
Activity calls are given as the source filed them. Rule as the data show it: active = GI50 up to about 1.1 µM and inactive = higher.
GI50 values, listed per item

Compound | Result
O=C1C2CCCCC2C(=O)N1n1c(Cc2ccc(Cl)cc2)n[nH]c1=O (stereo not given) | > 100 µM (inactive)
C=C(C)[C@H]1C=C[C@@H](OC(C)=O)[C@@]2(COC(C)=O)[C@H](OC(=O)CCC)[C@H]3[C@@H](OC(C)=O)[C@@H](C)C[C@]3(O)C(=O)[C@@](C)(OC(C)=O)[C@H]12 | 33.9 µM (inactive)
C/C(CC(=O)Nc1ccc(C)cc1C)=N/N=C(N)N | > 100 µM (inactive)

Request: Need GI50 of "NCCCOc1ccc([N+](=O)[O-])cc1Cl" , thanks.
Response: > 100 µM (inactive)

Request: Need GI50 of "CC(=O)CC(=O)c1cc2c(=O)oc(C)cc2oc1=O" , thanks.
Response: > 37.5 µM (inactive)

----------
Tested on: OVCAR-8
Test: NCI tumour cell line growth inhibition, 48 h
Activity calls are given as the source filed them. No stated cut-off is given here; in the data, active = GI50 up to about 1.1 µM and inactive = higher.
Recorded Endpoint: GI50

Molecule | GI50
CC(C)(C)Nc1noc(=O)n1C(C)(C)C | > 100 µM (inactive)
N=C(N)NCCCCCCC(=O)NC(O)C(=O)NCCCCNCCCN (centres undefined) | 641 µM (inactive)
CCC(C(=O)C(=O)OC)P1(=O)OC(C)(C)CN1C(C)(C)C (centres undefined) | > 100 µM (inactive)
CSc1c(CC(=O)Nc2ccc(Cl)cc2)n(Cc2ccccc2)c2ccccc12 | 12.3 µM (inactive)
c1ccc(C2=NCCc3cc4c(cc32)OCO4)cc1 | > 100 µM (inactive)

Request: Need GI50 of COc1ccc(COCC[C@H](C)OC2OC(CO[Si](C)(C)C(C)(C)C)C(OC(=O)CCCN=[N+]=[N-])C(OC(=O)CCCN=[N+]=[N-])C2OC(=O)CCCN=[N+]=[N-])cc1 (some centres undefined) , thanks.
Response: 19.7 µM (inactive)

Request: Need GI50 of "COc1ccc(/C=C2\C[C@H]3[C@@H]4CCC5=C/C(=N/O)CC[C@]5(C)[C@H]4CC[C@]3(C)\C2=N\O)cc1" , thanks.
Response: 9.42 µM (inactive)

Request: Need GI50 of "C/C(Nc1ccc(Cl)cc1Cl)=C1/CCOC1=O" , thanks.
Response: 48.3 µM (inactive)

Request: Need GI50 of CC(=O)OCC1OC(n2c(C)c(C(C)=O)c(-c3cccc4ccccc34)c(C#N)c2=S)C(OC(C)=O)C(OC(C)=O)C1OC(C)=O (centres undefined) , thanks.
Response: > 100 µM (inactive)

----------
GI50 values, listed per item
System: LOX IMVI
Assay: NCI tumour cell line growth inhibition, 48 h
Calls of active or inactive are those of the source. No stated cut-off is given here; in the data, active = GI50 up to about 1.1 µM and inactive = higher.

For orientation, consider the following solved cases.
Molecule | GI50
COCc1nc2c(OC)c(-c3nc4ccc(N5CCN(C)CC5)cc4[nH]3)cc(OC)c2[nH]1 | 18.7 µM (inactive)
FC(F)(F)c1ccc(Cc2nc3cc4ccccc4cc3[nH]2)cc1 | 77.8 µM (inactive)
COc1cc(OCc2nc3ccccc3n3cccc23)cc(OC)c1OC | 22.2 µM (inactive)
CC(C)(C)Nc1noc(=O)n1C(C)(C)C | > 100 µM (inactive)
COC(=O)CCCc1ccc2c(c1)CC1(C2)Cc2cc3c(cc2C1)CCCC3 | 30.3 µM (inactive)

Request: Need GI50 of "CSc1n[nH]c2[nH]nc(C)c12" , thanks.
Response: > 100 µM (inactive)

Request: Need GI50 of "Clc1ccc(Cc2nc3ccccc3o2)cc1" , thanks.
Response: > 100 µM (inactive)

Request: Need GI50 of "O=C1C=Cc2c(Br)sc(Br)c21" , thanks.
Response: 20.5 µM (inactive)

Request: Need GI50 of "O=c1ssc(Cl)c1Cl" , thanks.
Response: > 10 µM (inactive)

Request: Need GI50 of "C=CCCCN1CCCCC1=S" , thanks.
Response: > 100 µM (inactive)

Request: Need GI50 of "CSc1nnc(C(C#N)C#N)nn1" , thanks.
Response: > 100 µM (inactive)

Request: Need GI50 of COC(=O)C1Cc2c(C)cccc2C1=O (stereo not drawn) , thanks.
Response: 88.9 µM (inactive)

Request: Need GI50 of "CCN(CC)C(=O)Cn1c(C)cc2ccccc21" , thanks.
Response: > 100 µM (inactive)

----------
Test system: DU-145
Assay: NCI tumour cell line growth inhibition, 48 h
The source made the active and inactive calls. Rule as the data show it: active = GI50 up to about 1.1 µM and inactive = higher.
GI50 values, listed per item

For orientation, consider the following solved cases.
Compound | GI50
CCOC(=O)NC(OCc1ccccc1)(C(=O)OC)C(F)(F)F (stereo not given) | > 100 µM (inactive)
O=C1CCCc2cc3c(cc21)CC1(C3)Cc2ccc3c(c2C1)C(=O)CCC3 (stereo not given) | 39.8 µM (inactive)
COc1ccc2nc3c([N+](=O)[O-])ccc4c3c(c2c1)N=CN4CCN(C)C | 4.09 µM (inactive)
COc1ccc(/C=C2\C[C@H]3[C@@H]4CCC5=C/C(=N/O)CC[C@]5(C)[C@H]4CC[C@]3(C)\C2=N\O)cc1 | 13.4 µM (inactive)

Kindly consider the entry below.
Request: Need GI50 of "O=C1c2ccccc2C(=O)N1/N=C1/SC(=N\c2ccccc2)/C(=N/c2ccccc2)N1c1ccccc1" , thanks.
Response: > 100 µM (inactive)

Ref: ChEMBL document CHEMBL1201862
